Data origin: patent US8309584B2

# target under test: rat CB-1 receptor (Rattus norvegicus, UniProt P20272)
# Construct: The tissue obtained from the brain of SD rats was homogenized; from tissue; host or cells: SD rat brain membrane homogenate
# Sequence (P20272 whole entry): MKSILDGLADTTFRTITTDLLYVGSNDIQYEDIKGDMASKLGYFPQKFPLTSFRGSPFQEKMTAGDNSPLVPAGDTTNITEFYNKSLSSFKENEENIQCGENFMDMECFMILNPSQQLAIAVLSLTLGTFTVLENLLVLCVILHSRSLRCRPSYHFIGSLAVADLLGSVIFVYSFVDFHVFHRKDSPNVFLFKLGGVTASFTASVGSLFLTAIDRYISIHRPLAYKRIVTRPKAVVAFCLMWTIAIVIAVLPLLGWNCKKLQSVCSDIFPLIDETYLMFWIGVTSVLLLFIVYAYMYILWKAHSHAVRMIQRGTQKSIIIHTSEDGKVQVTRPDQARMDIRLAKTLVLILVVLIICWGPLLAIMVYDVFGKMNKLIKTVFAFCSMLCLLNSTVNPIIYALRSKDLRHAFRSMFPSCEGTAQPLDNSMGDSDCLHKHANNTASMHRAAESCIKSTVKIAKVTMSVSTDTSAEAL
# protocol details: rat cannabinoid-1 receptor (CB1R) binding affinity assay
# assay setup: [3H]CP-55940 radioligand, SD rat brain tissue homogenate, 30° C., 60 min; read-out: IC50
Here the recorded log10(IC50) is given for each entry.
// units: nM (pre-log); metric: IC50; scale: log10

• CS(=O)(=O)c1c(-c2nnc(C3(C(F)(F)F)CC3)s2)nn(-c2ccccc2Cl)c1-c1ccc(Br)cc1 = 0.40
• C[S+]([O-])c1c(-c2nnc(C3(C(F)(F)F)CCC3)s2)nn(-c2ccc(Cl)cc2Cl)c1-c1ccc(Cl)cc1 (centres unmarked) = 0.61
• CS(=O)(=O)c1c(-c2nnc(C3(C(F)(F)F)CCC3)s2)nn(-c2ccccc2Cl)c1-c1ccc(Br)cc1 = 0.03
• CSc1c(-c2nnc(C(C)(C)C)o2)nn(-c2ccc(Cl)cc2Cl)c1-c1ccc(Cl)cc1 = 0.80
• CSc1c(-c2nnc(C3(C(F)(F)F)CC3)s2)nn(-c2ccc(Cl)cc2Cl)c1-c1ccc(Cl)cc1 = 1.04
• C[S+]([O-])c1c(-c2nnc(C3(C(F)(F)F)CC3)o2)nn(-c2ccc(Cl)cc2Cl)c1-c1ccc(Cl)cc1 (centres unmarked) = 1.39
• CCS(=O)(=O)c1c(-c2nnc(C3(c4ccc(Cl)cc4)CC3)s2)nn(-c2ccc(Cl)cc2Cl)c1-c1ccc(Cl)cc1 = 0.31
• CSc1c(-c2nnc(C3(C(F)(F)F)CC3)o2)nn(-c2ccc(Cl)cc2Cl)c1-c1ccc(Br)cc1 = 0.90

Task: Request the reported log10(IC50) associated with `CC(C)(C)c1nnc(-c2nn(-c3ccc(Cl)cc3Cl)c(-c3ccc(Cl)cc3)c2S(C)(=O)=O)o1`
Result: 1.18

Task: Subsequent entry: `CSc1c(-c2nnc(C3(c4ccc(Cl)cc4)CC3)o2)nn(-c2ccc(Cl)cc2Cl)c1-c1ccc(Br)cc1`
Result: 0.97

Task: Moving on to `CS(=O)(=O)c1c(-c2nnc(C3(C(F)(F)F)CC3)o2)nn(-c2ccc(Cl)cc2Cl)c1-c1ccc(Cl)cc1`
Result: 0.80

Task: Another compound: `CS(=O)(=O)c1c(-c2nnc(C3(c4ccc(Cl)cc4)CC3)o2)nn(-c2ccc(Cl)cc2Cl)c1-c1ccc(Cl)cc1`
Result: 1.34

Task: And for `CSc1c(-c2nnc(C3(C(F)(F)F)CCC3)o2)nn(-c2ccc(Cl)cc2Cl)c1-c1ccc(Br)cc1` ?
Result: 0.93

Task: Okay, and C[S+]([O-])c1c(-c2nnc(C(C)(C)C)o2)nn(-c2ccc(Cl)cc2Cl)c1-c1ccc(Cl)cc1 (centres unmarked) ?
Result: 1.48

----------
# target under test: rat CB-1 receptor (Rattus norvegicus, UniProt P20272)
# Construct: The tissue obtained from the brain of SD rats was homogenized; from tissue; host or cells: SD rat brain membrane homogenate
# protocol details: rat cannabinoid-1 receptor (CB1R) binding affinity assay
# assay setup: [3H]CP-55940 radioligand, SD rat brain tissue homogenate, 30° C., 60 min; read-out: IC50
Kindly apply the following: MET if IC50 is less than 4 nM, NOT MET in every other case.

Field: example entries. Status: answers known.
* C[S+]([O-])c1c(-c2nnc(C3(C(F)(F)F)CCC3)s2)nn(-c2ccccc2Cl)c1-c1ccc(Cl)cc1 (stereo not drawn) [Example 66] | MET
* CS(=O)(=O)c1c(-c2nnc(C3(C(F)(F)F)CCC3)s2)nn(-c2ccccc2Cl)c1-c1ccc(Cl)cc1 [Example 106] | MET
* C[S+]([O-])c1c(-c2nnc(C3(C(F)(F)F)CCC3)s2)nn(-c2ccccc2Cl)c1-c1ccc(Br)cc1 (stereo not drawn) [Example 74] | MET
* CSc1c(-c2nnc(C3(C(F)(F)F)CC3)o2)nn(-c2ccc(Cl)cc2Cl)c1-c1ccc(Cl)cc1 [Example 2] | NOT MET
* CC(C)(C)c1nnc(-c2nn(-c3ccccc3Cl)c(-c3ccc(Br)cc3)c2S(C)(=O)=O)s1 [Example 112] | MET
* CSc1c(-c2nnc(C3(c4ccc(Cl)cc4)CC3)o2)nn(-c2ccc(Cl)cc2Cl)c1-c1ccc(Cl)cc1 [Example 4] | NOT MET

Alright, here's another compound for you.
Task: Say whether its IC50 is strictly beneath 4 nM. Entry: CS(=O)(=O)c1c(-c2nnc(C3(C(F)(F)F)CCC3)s2)nn(-c2ccc(Cl)cc2Cl)c1-c1ccc(Cl)cc1 [Example 102]
Result: MET

----------
# target under test: rat CB-1 receptor (Rattus norvegicus)
# Construct: The tissue obtained from the brain of SD rats was homogenized; from tissue; host or cells: SD rat brain membrane homogenate
# protocol details: rat cannabinoid-1 receptor (CB1R) binding affinity assay
# assay setup: [3H]CP-55940 radioligand, SD rat brain tissue homogenate, 30° C., 60 min; read-out: IC50
quantity: log10 of IC50 (log10 of the value in nM)
Note: values are log10 of IC50 expressed in nM.

Here's what some known entries look like.
• C[S+]([O-])c1c(-c2nnc(C3(C(F)(F)F)CCC3)o2)nn(-c2ccc(Cl)cc2Cl)c1-c1ccc(Cl)cc1 (centres unmarked) = 0.95
• CSc1c(-c2nnc(C3(C(F)(F)F)CC3)s2)nn(-c2ccccc2Cl)c1-c1ccc(Br)cc1 = 1.23
• CSc1c(-c2nnc(C3(C(F)(F)F)CC3)o2)nn(-c2ccccc2Cl)c1-c1ccc(Cl)cc1 = 0.92
• CS(=O)(=O)c1c(-c2nnc(C3(C(F)(F)F)CCC3)o2)nn(-c2ccccc2Cl)c1-c1ccc(Br)cc1 = 0.72

Task: Any idea what its log10 of IC50 is? The compound is `CC(C)(C)c1nnc(-c2nn(-c3ccc(Cl)cc3Cl)c(-c3ccc(Cl)cc3)c2S(C)(=O)=O)s1`
Result: 0.77

Task: Next record, please: `CS(=O)(=O)c1c(-c2nnc(C3(c4ccc(Cl)cc4)CC3)s2)nn(-c2ccccc2Cl)c1-c1ccc(Br)cc1`
Result: 0.15

Task: Could you do the same for `CS(=O)(=O)c1c(-c2nnc(C3(C(F)(F)F)CCC3)o2)nn(-c2ccc(Cl)cc2Cl)c1-c1ccc(Br)cc1` , please?
Result: 0.87

Task: Try this compound too: `CC(C)(C)c1nnc(-c2nn(-c3ccc(Cl)cc3Cl)c(-c3ccc(Br)cc3)c2S(C)(=O)=O)o1`
Result: 1.15

----------
# target under test: rat CB-1 receptor (Rattus norvegicus, UniProt P20272)
# Construct: The tissue obtained from the brain of SD rats was homogenized; from tissue; host or cells: SD rat brain membrane homogenate
# protocol details: rat cannabinoid-1 receptor (CB1R) binding affinity assay
# assay setup: [3H]CP-55940 radioligand, SD rat brain tissue homogenate, 30° C., 60 min; read-out: IC50
# Method: The tissue obtained from the brain of SD rats was homogenized with a Dounce homogenate system in TME(50 mM Tris, 3 mM MgCl2 and 1 mM EDTA, pH 7.4) at 4° C., and the homogenate was centrifuged at 48,000 g for 30 min. at 4° C. […] The tissue concentrations were determined by Bradford protein analysis, and 148 μl of brain tissue of the required concentration was added to the plate. […]
Binary call on IC50 with cut-off 7 nM: strictly below means Fulfilled, and equality or higher means Not fulfilled.

These solved cases illustrate the format of a correct answer.
• CSc1c(-c2nnc(C(C)(C)C)s2)nn(-c2ccccc2Cl)c1-c1ccc(Br)cc1 = Fulfilled
• CS(=O)(=O)c1c(-c2nnc(C3(C(F)(F)F)CC3)s2)nn(-c2ccc(Cl)cc2Cl)c1-c1ccc(Cl)cc1 = Not fulfilled
• C[S+]([O-])c1c(-c2nnc(C(C)(C)C)s2)nn(-c2ccc(Cl)cc2Cl)c1-c1ccc(Cl)cc1 (centres unmarked) = Not fulfilled
• CSc1c(-c2nnc(C3(c4ccc(Cl)cc4)CC3)o2)nn(-c2ccccc2Cl)c1-c1ccc(Cl)cc1 = Fulfilled
• CS(=O)(=O)c1c(-c2nnc(C3(C(F)(F)F)CCC3)s2)nn(-c2ccc(Cl)cc2Cl)c1-c1ccc(Br)cc1 = Fulfilled

Task: Bench note: check whether `CS(=O)(=O)c1c(-c2nnc(C3(c4ccc(Cl)cc4)CC3)s2)nn(-c2ccc(Cl)cc2Cl)c1-c1ccc(Cl)cc1` shows IC50 below 7 nM
Result: Fulfilled

Task: What about this molecule? `CC(C)(C)c1nnc(-c2nn(-c3ccccc3Cl)c(-c3ccc(Br)cc3)c2S(C)(=O)=O)o1`
Result: Not fulfilled
